Tested on: P31-FUJ;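 further: growth inhibition of P31-FUJ cells, read out with a viability assay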
ASSAY_REMARKS: cells
Format: functional, cell-based
PROTOCOL_CONDITIONS: Homo sapiens
Description: SANGER: Inhibition of human P31-FUJ cell growth in a cell viability assay.
pIC50: −log10 of the molar value.
READOUT_LABEL: pIC50

* Cc1n[nH]c2ccc(-c3cncc(OC[C@@H](N)Cc4c[nH]c5ccccc45)c3)cc12 [A-443654] | < 5.99

----------
System: DSH1;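 further: growth inhibition of human DSH1 cells, measured with a cell viability readout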
ASSAY_REMARKS: cells
Assay type: functional, cell-based
PROTOCOL_CONDITIONS: Homo sapiens
Description: SANGER: Inhibition of human DSH1 cell growth in a cell viability assay.
pIC50: −log10 of the molar value.
READOUT_LABEL: pIC50

• N#C/C(=C1/Nc2ccccc2S1)c1ccnc(NCCc2cccnc2)n1 = < 5.10
• Cc1ccc(NC(=O)c2cccc(C(C)(C)C#N)c2)cc1Nc1ccc2ncn(C)c(=O)c2c1 = < 5.40
• C/C=C(/C)C(=O)O[C@H]1C(C)=C2[C@H]([C@@H]1OC(=O)CCCCCCC)[C@@](C)(OC(C)=O)C[C@H](OC(=O)CCC)[C@@]1(O)[C@H]2OC(=O)[C@@]1(C)O [THAPSIGARGIN] = 7.86
• CC(=O)c1c(C)c2cnc(Nc3ccc(N4CCNCC4)cn3)nc2n(C2CCCC2)c1=O [PALBOCICLIB] = < 5.40
• CCn1c(-c2nonc2N)nc2cnc(Oc3cccc(NC(=O)c4ccc(OCCN5CCOCC5)cc4)c3)cc21 [GSK-269962A] = < 5.60
• Cn1cc(/C=C2\C(=O)Nc3cccnc32)c2ccccc21 = < 5.70
• CC(C)=CC[C@@H](O)C1=CC(=O)c2c(O)ccc(O)c2C1=O [SHIKONIN] = 4.98
• COc1cc(Nc2c(C#N)cnc3cc(OCCCN4CCN(C)CC4)c(OC)cc23)c(Cl)cc1Cl [BOSUTINIB] = < 5.70
• CO[C@@]12[C@H](COC(N)=O)C3=C(C(=O)C(C)=C(N)C3=O)N1C[C@@H]1N[C@@H]12 [MITOMYCIN] = 7.02

----------
Test system: LN-405
ASSAY_REMARKS: cells
Type: functional, cell-based
PROTOCOL_CONDITIONS: Homo sapiens
Description: SANGER: Inhibition of human LN-405 cell growth in a cell viability assay.
Measured IC50 accompanies every entry in the list below.
READOUT_LABEL: IC50

- O=c1cc(N2CCOCC2)oc2c(-c3cccc4c3sc3ccccc34)cccc12: > 2 µM
- CC(O)(CS(=O)(=O)c1ccc(F)cc1)C(=O)Nc1ccc(C#N)c(C(F)(F)F)c1 (stereo unspecified) [BICALUTAMIDE]: > 1.02 µM
- CC[C@@]1(O)C(=O)OCc2c1cc1n(c2=O)Cc2cc3ccccc3nc2-1 [CAMPTOTHECIN]: > 0.1 µM
- C/C(O)=C(\C#N)C(=O)Nc1cc(Br)ccc1Br: > 16 µM
- CC(C)=CC[C@@H](O)C1=CC(=O)c2c(O)ccc(O)c2C1=O [SHIKONIN]: 6.91 µM
- Cn1c(=O)n(-c2ccc(C(C)(C)C#N)cc2)c2c3cc(-c4cnc5ccccc5c4)ccc3ncc21 [DACTOLISIB]: 0.0639 µM

----------
Tested on: D-502MG
ASSAY_REMARKS: cells
Assay type: functional, cell-based
PROTOCOL_CONDITIONS: Homo sapiens
Description: SANGER: Inhibition of human D-502MG cell growth in a cell viability assay.
Measured IC50 accompanies every entry in the list below.
READOUT_LABEL: IC50 (nM)

* C/C=C(/C)C(=O)O[C@H]1C(C)=C2[C@H]([C@@H]1OC(=O)CCCCCCC)[C@@](C)(OC(C)=O)C[C@H](OC(=O)CCC)[C@@]1(O)[C@H]2OC(=O)[C@@]1(C)O [THAPSIGARGIN] | 343
* CC(C)=CC[C@@H](O)C1=CC(=O)c2c(O)ccc(O)c2C1=O [SHIKONIN] | 4370

----------
Tested on: CaR-1;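 further: growth inhibition of human CaR-1 cancer cells, read out with a cell viability assay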
ASSAY_REMARKS: cells
Type: functional, cell-based
PROTOCOL_CONDITIONS: Homo sapiens
Description: SANGER: Inhibition of human CaR-1 cell growth in a cell viability assay.
READOUT_LABEL: IC50 (µM)

• C/C=C(/C)C(=O)O[C@H]1C(C)=C2[C@H]([C@@H]1OC(=O)CCCCCCC)[C@@](C)(OC(C)=O)C[C@H](OC(=O)CCC)[C@@]1(O)[C@H]2OC(=O)[C@@]1(C)O = 0.00862
• NC(=O)c1ncn([C@@H]2O[C@H](COP(=O)(O)O)[C@@H](O)[C@H]2O)c1N = 1650
• CC(C)=CC[C@@H](O)C1=CC(=O)c2c(O)ccc(O)c2C1=O = 1.31
• Cn1c(=O)n(-c2ccc(C(C)(C)C#N)cc2)c2c3cc(-c4cnc5ccccc5c4)ccc3ncc21 = 0.0682

----------
Tested on: PFSK-1;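 further: cell viability assay measuring how strongly compounds suppress growth of human PFSK-1 cells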
ASSAY_REMARKS: cells
Assay type: functional, cell-based
PROTOCOL_CONDITIONS: Homo sapiens
Description: SANGER: Inhibition of human PFSK-1 cell growth in a cell viability assay.
Measured IC50 accompanies every entry in the list below.
READOUT_LABEL: IC50

- CCCS(=O)(=O)Nc1ccc(F)c(C(=O)c2c[nH]c3ncc(Cl)cc23)c1F: > 10 µM
- NC(=O)c1ncn([C@@H]2O[C@H](COP(=O)(O)O)[C@@H](O)[C@H]2O)c1N: > 2000 µM
- C/C(O)=C(\C#N)C(=O)Nc1cc(Br)ccc1Br: > 16 µM
- CC(=O)c1c(C)c2cnc(Nc3ccc(N4CCNCC4)cn3)nc2n(C2CCCC2)c1=O: > 4 µM

----------
Measured pIC50 accompanies every entry in the list below.
Test system: D-247MG
ASSAY_REMARKS: cells
Type: functional, cell-based
PROTOCOL_CONDITIONS: Homo sapiens
Description: SANGER: Inhibition of human D-247MG cell growth in a cell viability assay.
pIC50: −log10 of the molar value.
READOUT_LABEL: pIC50

• CC[C@]1(O)C[C@@H]2CN(CCc3c([nH]c4ccccc34)[C@@](C(=O)OC)(c3cc4c(cc3OC)N(C)[C@H]3[C@@](O)(C(=O)OC)[C@H](OC(C)=O)[C@]5(CC)C=CCN6CC[C@]43[C@@H]65)C2)C1 = 8.16
• CC(C)=CC[C@@H](O)C1=CC(=O)c2c(O)ccc(O)c2C1=O = 5.78
• Cc1n[nH]c2ccc(-c3cncc(OC[C@@H](N)Cc4c[nH]c5ccccc45)c3)cc12 = 6.01

----------
Tested on: HDLM-2;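 further: cell viability assay measuring suppression of HDLM-2 proliferation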
ASSAY_REMARKS: cells
Assay type: functional, cell-based
PROTOCOL_CONDITIONS: Homo sapiens
Description: SANGER: Inhibition of human HDLM-2 cell growth in a cell viability assay.
Measured IC50 accompanies every entry in the list below.
READOUT_LABEL: IC50 (µM)

- C/C=C(/C)C(=O)O[C@H]1C(C)=C2[C@H]([C@@H]1OC(=O)CCCCCCC)[C@@](C)(OC(C)=O)C[C@H](OC(=O)CCC)[C@@]1(O)[C@H]2OC(=O)[C@@]1(C)O: 0.215
- NC(=O)c1ncn([C@@H]2O[C@H](COP(=O)(O)O)[C@@H](O)[C@H]2O)c1N: 1780

----------
Tested on: CHL-1
ASSAY_REMARKS: cells
Assay type: functional, cell-based
PROTOCOL_CONDITIONS: Homo sapiens
Description: SANGER: Inhibition of human CHL-1 cell growth in a cell viability assay.
READOUT_LABEL: IC50

* C[C@]1(c2nc3c(C(N)=O)cccc3[nH]2)CCCN1 | > 5000 nM
* CC[C@]1(O)C[C@@H]2CN(CCc3c([nH]c4ccccc34)[C@@](C(=O)OC)(c3cc4c(cc3OC)N(C)[C@H]3[C@@](O)(C(=O)OC)[C@H](OC(C)=O)[C@]5(CC)C=CCN6CC[C@]43[C@@H]65)C2)C1 | 12 nM
* C[C@]12O[C@H](C[C@]1(O)CO)n1c3ccccc3c3c4c(c5c6ccccc6n2c5c31)CNC4=O | 13.5 nM
* O=c1[nH]c2ccccc2n1C1CCN(Cc2ccc(-c3nc4cc5[nH]cnc5cc4nc3-c3ccccc3)cc2)CC1 | > 2560 nM
* Cn1c(=O)n(-c2ccc(C(C)(C)C#N)cc2)c2c3cc(-c4cnc5ccccc5c4)ccc3ncc21 | 15.5 nM

----------
Measured pIC50 accompanies every entry in the list below.
Test system: IST-MEL1
ASSAY_REMARKS: cells
Type: functional, cell-based
PROTOCOL_CONDITIONS: Homo sapiens
Description: SANGER: Inhibition of human IST-MEL1 cell growth in a cell viability assay.
pIC50: −log10 of the molar value.
READOUT_LABEL: pIC50

• COc1cc(C)c(Sc2cnc(NC(=O)c3ccc(CNC(C)C(C)(C)C)cc3)s2)cc1C(=O)N1CCN(C(C)=O)CC1 (stereo not drawn) = < 4.99
• CCNc1cc(N[C@H]2CC[C@@H](O)CC2)nc(Nc2ccc3c(ccn3Cc3ccccc3)c2)n1 = < 5.29
• CC(O)(CS(=O)(=O)c1ccc(F)cc1)C(=O)Nc1ccc(C#N)c(C(F)(F)F)c1 (stereo not drawn) [BICALUTAMIDE] = < 5.99
• CC(=O)c1c(C)c2cnc(Nc3ccc(N4CCNCC4)cn3)nc2n(C2CCCC2)c1=O [PALBOCICLIB] = < 5.40
• Cn1c(=O)n(-c2ccc(C(C)(C)C#N)cc2)c2c3cc(-c4cnc5ccccc5c4)ccc3ncc21 [DACTOLISIB] = 7.73
• CCn1c(-c2nonc2N)nc2cnc(Oc3cccc(NC(=O)c4ccc(OCCN5CCOCC5)cc4)c3)cc21 [GSK-269962A] = < 5.60
• Cc1ccc(NC(=O)c2cccc(C(C)(C)C#N)c2)cc1Nc1ccc2ncn(C)c(=O)c2c1 = 6.69
• CC[C@@]1(O)C(=O)OCc2c1cc1n(c2=O)Cc2cc3ccccc3nc2-1 [CAMPTOTHECIN] = 8.42
